Measured values drawn from patent US11098077B2 for this set.

molecular target: hSTING HAQ allele in THP1-Dual cells (Homo sapiens, UniProt Q86WV6, G230A/H232R/R293Q/R71H); construct: a human monocyte cell line containing the hSTING HAQ allele; assay: THP1-Dual IRF-3 inducible secreted luciferase reporter assay (type I interferon activation), without digitonin
Sequence (Q86WV6 whole entry R71H/G230A/H232R/R293Q): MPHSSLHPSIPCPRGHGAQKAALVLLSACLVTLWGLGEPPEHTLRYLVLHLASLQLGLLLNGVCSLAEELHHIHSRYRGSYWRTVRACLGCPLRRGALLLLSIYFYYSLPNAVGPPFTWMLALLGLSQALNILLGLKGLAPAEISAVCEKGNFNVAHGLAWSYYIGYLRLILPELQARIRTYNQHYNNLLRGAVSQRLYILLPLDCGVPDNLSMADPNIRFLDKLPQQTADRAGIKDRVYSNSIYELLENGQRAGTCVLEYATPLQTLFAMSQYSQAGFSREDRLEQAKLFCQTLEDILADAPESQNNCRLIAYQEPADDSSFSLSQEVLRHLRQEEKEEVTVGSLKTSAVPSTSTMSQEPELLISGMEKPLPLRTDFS
EC50 values for the compounds below.
Numbers only; they are read as µM.

See these solved cases before continuing.
1) Nc1ncnc2c1ncn2[C@@H]1O[C@@H]2CO[P@](=O)(S)O[C@H]3[C@H]4OC[C@]3(CO[P@@](=O)(S)O[C@@H]1[C@@H]2O)O[C@H]4n1cnc2c(N)ncnc21 [Compound 10b]; 110
2) Nc1nc2c(ncn2[C@@H]2O[C@@H]3CO[P@](=O)(S)O[C@H]4[C@H]5OC[C@]4(CO[P@@](=O)(S)O[C@H]3[C@H]2O)O[C@H]5n2cnc3c(N)ncnc32)c(=O)[nH]1 [Compound 45b]; 60

For the compound Nc1nc2c(ncn2[C@@H]2O[C@@]34CO[C@@H]2[C@@H]3O[P@@](=O)(S)OC[C@H]2O[C@@H](n3cnc5c(N)ncnc53)[C@H](O)[C@@H]2O[P@](=O)(S)OC4)c(=O)[nH]1 [Compound 33b] , what EC50 is on record?
38

For the compound Nc1ncnc2c1ncn2[C@@H]1O[C@@H]2CO[P@@](=O)(S)O[C@H]3[C@H]4OC[C@]3(CO[P@@](=O)(S)O[C@@H]1[C@@H]2O)O[C@H]4n1cnc2c(N)ncnc21 [Compound 10a] , what EC50 is on record?
24.3
